ASSAY: chemical genetic growth profiling, strain panel (AID 1159580);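 also: tested at 20 µM; growth read once vehicle control cultures reached saturation at 30 °C; 1 = growth at the plate median or of vehicle wells; lower values mean less growth of the strain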
SETTINGS: S. cerevisiae deletion strains, growth OD, locus YLR102C, strain apc9, hits give low values
In all, about 5,500 compounds went through this assay and about 2,000 (36%) were called active. About 18% were inconclusive and are not listed. The list shows a part of the results.
Would you kindly list normalized growth for each of these compounds?
Give the figure by itself; no unit, no explanation.

Query :: Give its normalized growth value. Item: CN(C)C(=O)Nc1ccc(Cl)c(Cl)c1
Result :: 1

Query :: Give its normalized growth value. Item: CCC(=O)Nc1ccc(Cl)c(Cl)c1
Result :: 1

Query :: Give its normalized growth value. Item: CCN(CCCc1ccccc1)CCCc1ccccc1
Result :: 1.02

Query :: Give its normalized growth value. Item: NNCCc1ccccc1
Result :: 0.991

Query :: Give its normalized growth value. Item: CC(=O)O[C@H]1C[C@@H](OC(C)=O)C(C)(C)C2CC(=O)[C@]3(C)C(CC[C@@]4(C)[C@H](c5ccoc5)OC(=O)[C@H]5O[C@]543)[C@]21C (stereo partly specified)
Result :: 1

Query :: Give its normalized growth value. Item: CN(C(=O)CN(CCO)CC(=O)N(C)C(C)(C)Cc1ccccc1)C(C)(C)Cc1ccccc1
Result :: 0.986
